# Study target: T1, Melanocortin receptor 1 (MC1R) on melanocytes (human, UniProt Q01726 1-317)
# T1 construct: whole, on cells; also called MC1 receptor; MCR1 receptors on the melanocyte
# T1 sequence (Q01726 whole entry): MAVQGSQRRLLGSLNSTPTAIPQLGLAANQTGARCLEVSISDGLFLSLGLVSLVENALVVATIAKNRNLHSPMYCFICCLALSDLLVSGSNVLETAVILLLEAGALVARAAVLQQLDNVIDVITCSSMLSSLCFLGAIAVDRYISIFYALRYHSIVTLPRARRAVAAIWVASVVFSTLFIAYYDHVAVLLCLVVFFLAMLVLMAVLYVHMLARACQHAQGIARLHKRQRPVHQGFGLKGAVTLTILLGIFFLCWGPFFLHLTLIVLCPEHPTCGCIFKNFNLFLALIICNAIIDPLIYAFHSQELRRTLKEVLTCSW
# Run description: flow cytometry, cell-associated fluorescence of peptide-targeted capsules (50 µg/mL, 37° C., 3 h) on melanocytes in a mixed cell population
Observable: Cell specific binding (%)

binder="SYSXEHFRXGKPV (N-terminal palmitoyl; Nle at 4 (X); D-Phe at 7; 3-amino-3-(biphenyl) propionic acid at 9 (X); D-Pro at 12; C-terminal NH-(CH2)3-(OCH2CH2)2-CH2-NH2, Coupled to the outer surface of fluorescent polymer capsules in the assay; also called peptide of formula (I), AA1 = 3-amino-3-(biphenyl) propionic acid)" unit_descriptor=% numeric_result=74
binder="SYSXEHFRFGKPV (N-terminal palmitoyl; Nle at 4 (X); D-Phe at 7; D-Pro at 12; C-terminal NH-(CH2)3-(OCH2CH2)2-CH2-NH2, Coupled to the outer surface of fluorescent polymer capsules in the assay; Stereochemistry of the residue at 9 is not specified; also called peptide of formula (I), AA1 = Phenylalanine)" unit_descriptor=% numeric_result=85
binder="SYSXEHFRXGKPV (N-terminal palmitoyl; Nle at 4 (X); D-Phe at 7; L-3,4-dihydroxyphenylalanine at 9 (X); D-Pro at 12; C-terminal NH-(CH2)3-(OCH2CH2)2-CH2-NH2, Coupled to the outer surface of fluorescent polymer capsules in the assay; also called peptide of formula (I), AA1 = L-3,4-dihydroxyphenylalanine)" unit_descriptor=% numeric_result=80
binder="SYSXEHFRYGKPV (N-terminal palmitoyl; Nle at 4 (X); D-Phe at 7; D-Pro at 12; C-terminal NH-(CH2)3-(OCH2CH2)2-CH2-NH2, Coupled to the outer surface of fluorescent polymer capsules in the assay; Stereochemistry of the residue at 9 is not specified; also called peptide of formula (I), AA1 = Tyrosine)" unit_descriptor=% numeric_result=80
binder="SYSXEHFRHGKPV (N-terminal palmitoyl; Nle at 4 (X); D-Phe at 7; D-Pro at 12; C-terminal NH-(CH2)3-(OCH2CH2)2-CH2-NH2, Coupled to the outer surface of fluorescent polymer capsules in the assay; Stereochemistry of the residue at 9 is not specified; also called peptide of formula (I), AA1 = Histidine)" unit_descriptor=% numeric_result=58
binder="SYSXEHFRXGKPV (N-terminal palmitoyl; Nle at 4 (X); D-Phe at 7; 3-(2-Naphthyl)-D-alanine at 9 (X); D-Pro at 12; C-terminal NH-(CH2)3-(OCH2CH2)2-CH2-NH2, Coupled to the outer surface of fluorescent polymer capsules in the assay; also called peptide of formula (I), AA1 = 3-(2-Naphthyl)-D-alanine)" unit_descriptor=% numeric_result=71
binder="SYSXEHFRXGKPV (N-terminal palmitoyl; Nle at 4 (X); D-Phe at 7; 5-hydroxytryptophan at 9 (X); D-Pro at 12; C-terminal NH-(CH2)3-(OCH2CH2)2-CH2-NH2, Coupled to the outer surface of fluorescent polymer capsules in the assay; also called peptide of formula (I), AA1 = 5-hydroxytryptophan)" unit_descriptor=% numeric_result=73
binder="SYSXEHFRXGKPV (N-terminal palmitoyl; Nle at 4 (X); D-Phe at 7; 3-amino-3-(1-naphthyl) propionic acid at 9 (X); D-Pro at 12; C-terminal NH-(CH2)3-(OCH2CH2)2-CH2-NH2, Coupled to the outer surface of fluorescent polymer capsules in the assay; also called peptide of formula (I), AA1 = 3-amino-3-(1-naphthyl) propionic acid)" unit_descriptor=% numeric_result=75

Value source: patent US20160250128A1
